Molecular target: Hemagglutinin of influenza A/Solomon Islands/3/06 (H1N1) on whole virions (Influenza A virus A/Solomon …)
Experiment: cell-based or functional assay
Outcome measure: % Neutralization (%)

Binder	Unit abbreviation	Measured number
TCN-534 (5249_B02) (antibody, V domains shown) VH: QVQLVQSGAEVKKPGSSVKVSCRESGGTFNGYTITWVRQAPGQGLEWMGGIIPMMGTVNYAQKLQGRVTITTDYFTKTAYMDLNNLRSEDTAMYYCVKIRYTGQQLLWGQGTLVTVSS VL: DIQMTQSPSTLSASIGDRVTITCRASQSIASWLAWYQQKPGKAPKLLIYEAVNLESGVPSRFSGSGSGTDFTLTISSLQPDDFATYFCQHYGTISQTFGGGTKVEIK	%	86
TCN-560 (5084_P10) (antibody, V domains shown) VH: EVQLVESGGGLVQPGGSLRLSCAASGFIFRNYWMSWVRQAPGKGLEWVANIKQDGREKYYVDSLRGRVNISRDNAENSLYLHMNSLRVEDTAVYFCARARMVVVTGDGFDVWGHGTMVTVSS VL: DIQMTQSPSSLSASVGDRVTITCRASQNIKRYFNWYQQKPGKAPKLLIYAASNLENGVPSRFSGSGSGTDFTLTISSLQPEDFATYYCQQSFSKSWTFGQGTNVDIK	%	94
TCN-522 (3212_I12) (antibody, V domains shown) VH: QVQLQQWGAGLLKPSETLSLTCTVSGGSLTDYSWNWIRQPPGKGLEWIGDTLHNGYTNYNPSLRGRVSISIDTSKNQVSLRLTSVTAADTALYYCARGSGGYGGFDYFGKLRTWDFWGQGTLVTVSS VL: DIQLTQSPSSLSASVGDRVTITCRASQGIRNDLGWYQQKPGNAPKRLIFGASSLQSGVPSRFSGSGSGTEFTLTISSLQPEDFATYYCLQHNSYPYTFGQGTKLEIK	%	33
TCN-563 (5237_B21) (antibody, V domains shown) VH: QVQLAQSGAEVKRPGSSVKVSCTASGGIFRKNAISWVRQAPGQGLEWMGGIIAVFNTANYAQKFQGRVKITADESGNTAYMELSSLRSDDTAVYYCASHPKYFYGSGSYPDFWGQGTLVTVSS VL: QSALTQPRSVSGSPGQSVTISCTGSSSDVGASNSVSWYQQHPGKAPKLVIYDVTERPSGVPHRFSGSKSGNTASLTVSGLQPEDEADYFCCAYGGKYLVVFGGGTKVTVL	%	78
